Origin of measurements: the supplement of paper PMC4977894

Attribute: perceived odor intensity rating
Tested on: Homo sapiens (human subject panel, olfactory perception)
method: perceived odor intensity rating (rating 0-100); higher = stronger perceived smell
experimental-parameters: odor dilution in paraffin oil: 1/1,000
Enter the number alone.

Study these solved cases before continuing.
molecule="CC(C)C[C@H](N)C(=O)O [L-Leucine]" measured_metric="perceived odor intensity rating" test_result=46.9
molecule="CCCCOC(=O)CC [Butyl Propionate]" measured_metric="perceived odor intensity rating" test_result=62

What does the record list as perceived odor intensity rating for COC(=O)c1ccco1 [methyl 2-furoate] ?
62.6

# iterate: CC/C=C\CCOC(=O)Cc1ccccc1 [cis-3-Hexenyl phenylacetate]
51

# iterate: CC(=O)OC1CC(C)CCC1C(C)C [L-Menthyl acetate]
15.4

# iterate: C1CCNCC1 [Piperidine]
76.5

# iterate: COc1cnccn1 [2-Methoxypyrazine]
68.3

# iterate: CO [methanol]
18

# iterate: CCCCCC(=O)OC [methyl caproate]
68.4

# iterate: c1ccsc1 [Thiophene (replicate)]
66.4

# iterate: Cc1ccc(C(C)C)cc1O [Carvacrol]
74.1

# iterate: CCCCC(=O)OC [Methyl valerate]
65.2

# iterate: c1coc(Cn2cccc2)c1 [1-Furfurylpyrrole]
76.3

# iterate: N[C@@H](Cc1ccc(O)cc1)C(=O)O [L-Tyrosine]
30.7

# iterate: O=C1CCCCCCCCCCCCCCO1 [Omega-Pentadecalactone]
23

* * *

System: Homo sapiens (human subject panel, olfactory perception)
method: perceived odor intensity rating (rating 0-100); higher = stronger perceived smell
experimental-parameters: odor dilution in paraffin oil: 1/10
measured-metric: perceived odor intensity rating
Enter the number alone.

compound="CC(=O)c1cc2c(cc1C)C(C)(C)C(C)CC2(C)C (stereo unspecified) [6-Acetyl-1,1,2,4,4,7-Hexamethyltetralin]" test_result=51.7
compound="CCCCC/C=C\\C/C=C\\CCCCCCCC(=O)O [Linoleic acid (replicate)]" test_result=91.6
compound="O=c1ccc2ccccc2o1 [coumarin]" test_result=77.5
compound="COc1ccc(C(C)=O)cc1 [Acetanisole]" test_result=82.2
compound="O=C(O)[C@@H]1CCCN1 [L-Proline]" test_result=81.4
compound="CCCCCCCCCCC [undecane]" test_result=56.4
compound="C=C1CCC2CC1C2(C)C (single isomer, unassigned; (-)) [(-)-beta-Pinene]" test_result=74.2
compound="CCOc1cc(C=O)ccc1O [Ethyl Vanillin]" test_result=75.3
compound="CCC(C)C1CCCCC1=O (stereo unspecified) [2-sec-Butylcyclohexanone]" test_result=81.9
compound="CC(=O)c1ccc2ccccc2c1 [Methyl beta-naphthyl ketone]" test_result=78.8

What does the record list as perceived odor intensity rating for Nc1ccccc1C(=O)OCCc1ccccc1 [Phenethyl anthranilate] ?
39.9

* * *

System: Homo sapiens (human subject panel, olfactory perception)
method: perceived odor intensity rating (rating 0-100); higher = stronger perceived smell
experimental-parameters: odor dilution in paraffin oil: 1/10
T means recorded perceived odor intensity rating is 70 or above; F means it is below 70.

Please review the following examples before continuing.
compound=COc1ccc(C=O)cc1OC label_value=T
compound=O=C(O)CC(O)(CC(=O)O)C(=O)O label_value=F
compound="CCCCCCCOC(C)=O [heptyl acetate]" label_value=T

Tell me whether perceived odor intensity rating is at least 70 here: CCCCCCOC(=O)CCCCC [Hexyl hexanoate]
F

# iterate: CCCCCCCCCC(C)=O
T

# iterate: O=C(OCc1ccccc1)c1ccccc1O [Benzyl salicylate]
F
